Reference source: patent US20260306527A1

Target: PRMT4 (Homo sapiens)
Sequence (Q86X55 1-608): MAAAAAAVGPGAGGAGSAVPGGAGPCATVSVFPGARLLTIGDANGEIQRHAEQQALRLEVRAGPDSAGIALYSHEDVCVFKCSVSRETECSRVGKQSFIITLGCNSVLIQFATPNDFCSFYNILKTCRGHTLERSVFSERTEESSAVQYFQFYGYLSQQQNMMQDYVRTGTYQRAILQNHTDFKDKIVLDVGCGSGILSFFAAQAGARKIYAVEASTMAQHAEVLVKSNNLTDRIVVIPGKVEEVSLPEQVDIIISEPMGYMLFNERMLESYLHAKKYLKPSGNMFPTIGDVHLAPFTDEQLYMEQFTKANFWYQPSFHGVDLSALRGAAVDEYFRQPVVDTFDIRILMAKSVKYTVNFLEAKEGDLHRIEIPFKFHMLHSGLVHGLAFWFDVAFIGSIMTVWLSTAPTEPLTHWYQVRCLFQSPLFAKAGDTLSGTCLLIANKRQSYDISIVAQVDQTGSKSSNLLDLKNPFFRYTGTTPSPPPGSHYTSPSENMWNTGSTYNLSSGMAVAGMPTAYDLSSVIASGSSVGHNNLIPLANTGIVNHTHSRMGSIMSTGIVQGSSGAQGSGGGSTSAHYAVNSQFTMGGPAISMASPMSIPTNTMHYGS
Test: radioactive assay (Reaction Biology Corp.), inhibition of PRMT4
Type: biochemical
Provide the recorded inhibition at 10 µM for the entries that follow.
Quick note: unit goes after the number.

| compound | value-observed |
| --- | --- |
| Nc1cccc(-c2ccc(CNC(=O)NCCSC[C@H]3O[C@@H](n4cnc5c(N)ncnc54)[C@H](O)[C@@H]3O)cc2)c1 [Compound 8b] | 43% |
| Nc1ncnc2c1ncn2[C@@H]1O[C@H](CSCCCNCc2cccc(-c3ccc(O)cc3)c2)[C@@H](O)[C@H]1O [Compound 10n] | 96% |
| Nc1ncnc2c1ncn2[C@@H]1O[C@H](CSCCNC(=O)NCCCc2ccccc2)[C@@H](O)[C@H]1O [Compound 7b] | 49% |
| COc1cc2nc(-c3cccc(O)c3)nc(NCCSC[C@H]3O[C@@H](n4cnc5c(N)ncnc54)[C@H](O)[C@@H]3O)c2cc1OC [Compound 12g] | 10% |
| Nc1ncnc2c1ncn2[C@@H]1O[C@H](CSCCCNCc2cccc(-c3cccc4cn[nH]c34)c2)[C@@H](O)[C@H]1O [Compound 10t] | 99% |

// each compound listed below needs its inhibition at 10 µM
1. Nc1ncnc2c1ncn2[C@@H]1O[C@H](CSCCCNC(=O)NCc2ccc3c(c2)OCO3)[C@@H](O)[C@H]1O [Compound 7o]
2. N=C(NCCCSC[C@H]1O[C@@H](n2cnc3c(NCCCc4ccccc4)ncnc32)[C@H](O)[C@@H]1O)NC1CCCC1 [Compound 19d]

42%
60%
